Quick reference for CPE inhibition among some compounds
- assay-overview: inhibitors of Bluetongue virus cytopathic effect, confirmation, arbovirus, BSR cells (AID 1250)
- condition-details: BSR cells, Bluetongue virus CPE, ATP luminescence, 72 h; at 20 µM (top of the series)
The source made the active and inactive calls.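 How the source made its calls: active means inhibition of at least 30% at one or more tested concentrations; inactive means inhibition below 30% at every dose.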
measurement-label: CPE inhibition

{"compound": "CC(C)(O[C@@H]1O[C@H](CO)[C@@H](O)[C@H](O)[C@H]1O)[C@H]1Cc2cc3ccc(=O)oc3cc2O1", "measurement-label": "CPE inhibition", "reported": "0.22% (inactive)"}
{"compound": "CCCCn1c(SCc2cccc([N+](=O)[O-])c2)nc2ccsc2c1=O", "measurement-label": "CPE inhibition", "reported": "3.1% (inactive)"}
{"compound": "O=C(O)c1ccc2[nH]c3c(c2c1)CSCC3", "measurement-label": "CPE inhibition", "reported": "2.13% (inactive)"}
{"compound": "CCOC(=O)c1csc(NC(=O)CC2CCCC2)n1", "measurement-label": "CPE inhibition", "reported": "6.07% (inactive)"}
{"compound": "COC(=O)c1ccccc1NC(=O)CN1CCC(n2nnc3cc(C(F)(F)F)ccc32)CC1", "measurement-label": "CPE inhibition", "reported": "16.3% (inactive)"}
{"compound": "COc1ccc2ccc(O)c(CN3CC=C(c4ccccc4)CC3)c2c1", "measurement-label": "CPE inhibition", "reported": "14.6% (inactive)"}
{"compound": "COc1cccc(C2=CC(c3ccc(C)cc3)n3ncnc3N2)c1 (stereo not given)", "measurement-label": "CPE inhibition", "reported": "22.6% (inactive)"}
{"compound": "CC(=O)Nc1ccc(NC(=O)COc2ccccc2C(=O)Nc2cccc(Cl)c2Cl)cc1", "measurement-label": "CPE inhibition", "reported": "15% (inactive)"}
{"compound": "O=C(Nc1ccc(OC(F)(F)F)cc1)c1[nH]ncc1[N+](=O)[O-]", "measurement-label": "CPE inhibition", "reported": "25.3% (inactive)"}
{"compound": "Cc1ccc(CSc2nnc(NC(=O)C3COc4ccccc4O3)s2)cc1 (stereo not given)", "measurement-label": "CPE inhibition", "reported": "26.6% (inactive)"}
